- Target Under Test: Delta-type opioid receptor (Homo sapiens, UniProt P41143)
- Sequence (P41143 whole entry): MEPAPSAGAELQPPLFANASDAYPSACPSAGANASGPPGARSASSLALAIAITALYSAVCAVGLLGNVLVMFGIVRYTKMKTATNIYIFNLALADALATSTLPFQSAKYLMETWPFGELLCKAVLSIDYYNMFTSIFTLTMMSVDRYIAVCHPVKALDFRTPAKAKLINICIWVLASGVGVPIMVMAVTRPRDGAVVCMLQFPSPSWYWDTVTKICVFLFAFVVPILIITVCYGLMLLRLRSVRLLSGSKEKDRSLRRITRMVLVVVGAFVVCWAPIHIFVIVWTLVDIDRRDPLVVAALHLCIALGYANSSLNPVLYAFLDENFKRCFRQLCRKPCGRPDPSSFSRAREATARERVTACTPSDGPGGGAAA
- Assay Procedure: Displacement of [3H]DADLE from Opioid receptor delta 1
pKi: −log10 of the molar value.
# key: entry, value: pKi

{"columns": ["Compound", "pKi"],
 "data": [
  ["C=C(C)CN1CCC23c4c5ccc(OC)c4O[C@H]2C(=O)/C(=C/c2ccccc2)C[C@@]3(O)C1C5 (stereo partly drawn)", 5.47],
  ["C=C(C)CN1CCC23c4c5ccc(OC)c4O[C@H]2c2[nH]c4ccccc4c2C[C@@]3(O)C1C5 (stereo partly drawn)", 6.30],
  ["C=C(C)CN1CCC23c4c5ccc(OC)c4O[C@H]2c2[nH]ncc2C[C@@]3(O)C1C5 (stereo partly drawn)", 5.62],
  ["C=C(C)CN1CCC23c4c5ccc(O)c4O[C@H]2c2[nH]ncc2C[C@@]3(O)C1C5 (stereo partly drawn)", 7.40],
  ["C=C(C)CN1CCC23c4c5ccc(OC)c4O[C@H]2c2oc4ccccc4c2C[C@@]3(O)C1C5 (stereo partly drawn)", 7.36],
  ["C=C(C)CN1CCC23c4c5ccc(O)c4O[C@H]2c2ncc(-c4ccc(Cl)cc4)cc2C[C@@]3(O)C1C5 (stereo partly drawn)", 7.80],
  ["C=C(C)CN1CCC23c4c5ccc(O)c4O[C@H]2c2[nH]c4ccccc4c2C[C@@]3(O)C1C5 (stereo partly drawn)", 8.33],
  ["C=C(C)CN1CCC23c4c5ccc(O)c4O[C@H]2c2oc4ccccc4c2C[C@@]3(O)C1C5 (stereo partly drawn)", 8.09]
]}
